From: patent US8754038B2

tgt: human CCR10 (Homo sapiens, UniProt P46092)
Construct: expressed in transfected cells
experiment: Calcium flux assay (CCR10 antagonism, CCL27 as agonist)
Type: cell-based
measurement_conditions: CCR10 transfected 300-19 murine pre-B cells; CCL27 30 nM
Numbered stars: 1 amine (or outer) side, 2 acyl side, 3 side chain; on linkers, the order of the positions; unused ones are H or OH. Square brackets hold non-standard residues; d marks the D form. Peptide text beside a SMILES is read from it. * marks the point of attachment. Tic(7-OH) = O=C(O)[C@@H]1Cc2ccc(O)cc2CN1; X13 = CC1(C)CC[C@@H](C(=O)[*:2])N1[*:1]; Hyp = O=C(O)[C@@H]1C[C@@H](O)CN1; Ac5c = NC1(C(=O)O)CCCC1; Dab = NCC[C@H](N)C(=O)O; Bn = c1ccc(C*)cc1
Recorded IC50 values for a group of molecules are listed next.
Write the answer as a number in nM, unit excluded.

Known results for molecules:
NCC[C@@H]1NC(=O)[C@H](Cc2c[nH]c3ccccc23)NC(=O)C2(CCCC2)NC(=O)[C@H](Cc2c[nH]c3ccccc23)NC(=O)[C@@H]2C[C@@H](OCc3ccccc3)CN2C(=O)[C@H]2CCCN2C1=O [compound 45, cyclo(-Trp-Cyp-Trp-Dab-^DPro-Hyp(Bn)-)] (cyclo([Ac5c]W[Dab][dP][Hyp](Bn)W))
65.8
N=C(N)NCCC[C@@H]1NC(=O)[C@H](Cc2c[nH]c3ccccc23)NC(=O)C2(CCCC2)NC(=O)[C@H](Cc2c[nH]c3ccccc23)NC(=O)[C@@H]2Cc3ccc(O)cc3CN2C(=O)[C@H]2CCCN2C1=O [Ex. 3, cyclo(-Trp-Cyp-Trp-Arg-^DPro-Tic(7OH)—)] (cyclo([Ac5c]WR[dP][Tic(7-OH)]W))
78.5

Now for the molecule whose IC50 we want.
Exam item: Consider the molecule CC1(C)CC[C@H]2C(=O)N[C@@H](Cc3c[nH]c4ccccc34)C(=O)NC3(CCCC3)C(=O)N[C@@H](Cc3c[nH]c4ccccc34)C(=O)N[C@@H](CCN)C(=O)N3CCC[C@@H]3C(=O)N21 [compound 42] (cyclo(W[Ac5c]W[Dab][dP][X13])) and give its measured IC50.
Marked response: 82.5

* * *

tgt: human CCR10 (Homo sapiens, UniProt P46092)
Construct: expressed in transfected cells
experiment: Chemotaxis assay (CCR10-transfected 300-19 cells, CCL27 gradient)
Type: cell-based
measurement_conditions: CCR10-transfected 300-19 murine pre-B cells; 30 nM CCL27 gradient
Numbered stars: 1 amine (or outer) side, 2 acyl side, 3 side chain; on linkers, the order of the positions; unused ones are H or OH. Square brackets hold non-standard residues; d marks the D form. Side chains are listed from the residue outwards. Peptide text beside a SMILES is read from it. * marks the point of attachment. X1 = O=C([C@@H]1C[C@@H](Cc2ccc(Br)cc2)CN1[*:1])[*:2]; X13 = CC1(C)CC[C@@H](C(=O)[*:2])N1[*:1]; 2Nal = N[C@@H](Cc1ccc2ccccc2c1)C(=O)O; Hyp = O=C(O)[C@@H]1C[C@@H](O)CN1; Tic = O=C(O)[C@@H]1Cc2ccccc2CN1; Thz = O=C(O)[C@@H]1CSCN1; Ac5c = NC1(C(=O)O)CCCC1; Dab = NCC[C@H](N)C(=O)O; CO = O=C([*:1])[*:2]; NHPh = c1ccc(N*)cc1
value_type: log10 IC50 (log10 of the value in nM)
Log scale reminder: IC50 in nM, then log10 taken.

NCC[C@@H]1NC(=O)[C@H](Cc2c[nH]c3ccccc23)NC(=O)C2(CCCC2)NC(=O)[C@H](Cc2c[nH]c3ccccc23)NC(=O)[C@@H]2C[C@@H](Cc3ccc(Br)cc3)CN2C(=O)[C@H]2CCCN2C1=O [compound 39] (cyclo([Ac5c]W[Dab][dP][X1]W))
0.95

Exam item: Which log10 IC50 value is on record for NCC[C@@H]1NC(=O)[C@H](Cc2c[nH]c3ccccc23)NC(=O)C2(CCCC2)NC(=O)[C@H](Cc2c[nH]c3ccccc23)NC(=O)[C@@H]2C[C@@H](OC(=O)Nc3ccccc3)CN2C(=O)[C@H]2CCCN2C1=O [compound 57] (cyclo([Ac5c]W[Dab][dP][Hyp]([CO-NHPh])W)) ?
Marked response: 2.26

Exam item: Endpoint output: log10 IC50 of NCC[C@@H]1NC(=O)[C@H](Cc2c[nH]c3ccccc23)NC(=O)C2(CCCC2)NC(=O)[C@H](Cc2c[nH]c3ccccc23)NC(=O)[C@@H]2CSCN2C(=O)[C@H]2CCCN2C1=O [compound 6, cyclo(-Trp-Cyp-Trp-Dab-^DPro-Thz-)] (cyclo([Ac5c]W[Dab][dP][Thz]W)) . Value?
Marked response: 1.29

Exam item: Need log10 IC50 of CC1(C)CC[C@H]2C(=O)N[C@@H](Cc3c[nH]c4ccccc34)C(=O)NC3(CCCC3)C(=O)N[C@@H](Cc3c[nH]c4ccccc34)C(=O)N[C@@H](CCN)C(=O)N3CCC[C@@H]3C(=O)N21 [compound 42] (cyclo(W[Ac5c]W[Dab][dP][X13])) , thanks.
Marked response: 1.15

Exam item: Which log10 IC50 value is on record for NC(=O)CC[C@@H]1NC(=O)[C@H](Cc2c[nH]c3ccccc23)NC(=O)C2(CCCC2)NC(=O)[C@H](Cc2ccc3ccccc3c2)NC(=O)[C@@H]2Cc3ccccc3CN2C(=O)[C@H]2CCCN2C1=O [Ex. 9, cyclo(-2NaI-Cyp-Trp-Gln-^DPro-Tic-)] (cyclo([2Nal][Ac5c]WQ[dP][Tic])) ?
Marked response: 0.30

* * *

tgt: human CCR10 (Homo sapiens, UniProt P46092)
Construct: expressed in transfected cells
Sequence (P46092 1-362): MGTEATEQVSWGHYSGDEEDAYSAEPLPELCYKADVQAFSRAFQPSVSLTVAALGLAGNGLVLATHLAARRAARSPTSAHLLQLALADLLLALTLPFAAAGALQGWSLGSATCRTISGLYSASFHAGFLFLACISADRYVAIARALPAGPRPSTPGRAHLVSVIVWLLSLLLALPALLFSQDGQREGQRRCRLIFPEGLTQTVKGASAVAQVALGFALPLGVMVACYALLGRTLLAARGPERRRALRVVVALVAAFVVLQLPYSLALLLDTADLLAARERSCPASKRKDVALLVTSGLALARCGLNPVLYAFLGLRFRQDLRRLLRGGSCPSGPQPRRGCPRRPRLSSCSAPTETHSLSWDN
experiment: Calcium flux assay (CCR10 antagonism, CCL27 as agonist)
Type: cell-based
measurement_conditions: CCR10 transfected 300-19 murine pre-B cells; CCL27 30 nM
Square brackets hold non-standard residues; d marks the D form. Peptide text beside a SMILES is read from it. * marks the point of attachment. Pro(trans-4-cHex) = O=C(O)[C@@H]1C[C@@H](C2CCCCC2)CN1; Pro(4R-Bn) = O=C(O)[C@@H]1C[C@@H](Cc2ccccc2)CN1; Trp(5-OH) = N[C@@H](Cc1c[nH]c2ccc(O)cc12)C(=O)O; Oic = O=C(O)[C@@H]1C[C@@H]2CCCC[C@@H]2N1; Phe(4-CN) = N#Cc1ccc(C[C@H](N)C(=O)O)cc1; 2Nal = N[C@@H](Cc1ccc2ccccc2c1)C(=O)O; Hyp = O=C(O)[C@@H]1C[C@@H](O)CN1; Tic = O=C(O)[C@@H]1Cc2ccccc2CN1; dPip = O=C(O)[C@H]1CCCCN1; Thz = O=C(O)[C@@H]1CSCN1; Ac5c = NC1(C(=O)O)CCCC1; Dab = NCC[C@H](N)C(=O)O; Bn = c1ccc(C*)cc1; Ms = CS(=O)(=O)*
Reported IC50 values for a set of compounds
Please give a number only; it is taken to be in nM.

Sample records with IC50:
NCC[C@@H]1NC(=O)[C@H](Cc2c[nH]c3ccccc23)NC(=O)C2(CCCC2)NC(=O)[C@H](Cc2c[nH]c3ccccc23)NC(=O)[C@@H]2C[C@@H](Cc3ccccc3)CN2C(=O)[C@H]2CCCN2C1=O [Ex. 38] (cyclo([Ac5c]W[Dab][dP][Pro(4R-Bn)]W))
26.1
N=C(N)NCCC[C@@H]1NC(=O)[C@H](Cc2c[nH]c3ccccc23)NC(=O)C2(CCCC2)NC(=O)[C@H](Cc2c[nH]c3ccc(O)cc23)NC(=O)[C@@H]2Cc3ccccc3CN2C(=O)[C@H]2CCCN2C1=O [Ex. 8, cyclo(-Trp(5OH)-Cyp-Trp-Arg-^DPro-Tic-)] (cyclo([Ac5c]WR[dP][Tic][Trp(5-OH)]))
52.5

Exam item: # query: IC50 of entry NCC[C@@H]1NC(=O)[C@H](Cc2c[nH]c3ccccc23)NC(=O)C2(CCCC2)NC(=O)[C@H](Cc2c[nH]c3ccccc23)NC(=O)[C@@H]2C[C@@H](C3CCCCC3)CN2C(=O)[C@H]2CCCN2C1=O [compound 41] (cyclo([Ac5c]W[Dab][dP][Pro(trans-4-cHex)]W))
Marked response: 54.3

Exam item: Consider the compound N#Cc1ccc(C[C@@H]2NC(=O)[C@@H]3C[C@@H](OCc4ccccc4)CN3C(=O)[C@H]3CCCCN3C(=O)[C@H](CO)NC(=O)[C@H](Cc3c[nH]c4ccccc34)NC(=O)C3(CCCC3)NC2=O)cc1 [compound 50] (cyclo([Ac5c]WS[dPip][Hyp](Bn)[Phe(4-CN)])) and give its measured IC50.
Marked response: 0.5

Exam item: Tell me the measured IC50 of NCC[C@@H]1NC(=O)[C@H](Cc2c[nH]c3ccccc23)NC(=O)C2(CCCC2)NC(=O)[C@H](Cc2c[nH]c3ccccc23)NC(=O)[C@@H]2CSCN2C(=O)[C@H]2CCCN2C1=O [compound 6, cyclo(-Trp-Cyp-Trp-Dab-^DPro-Thz-)] (cyclo([Ac5c]W[Dab][dP][Thz]W)) , please.
Marked response: 134

Exam item: Sample NC(=O)CC[C@@H]1NC(=O)[C@H](Cc2c[nH]c3ccccc23)NC(=O)C2(CCCC2)NC(=O)[C@H](Cc2ccc3ccccc3c2)NC(=O)[C@@H]2Cc3ccccc3CN2C(=O)[C@H]2CCCN2C1=O [Ex. 9, cyclo(-2NaI-Cyp-Trp-Gln-^DPro-Tic-)] (cyclo([2Nal][Ac5c]WQ[dP][Tic])) — what was its IC50?
Marked response: 9.2

Exam item: # query: IC50 of entry CS(=O)(=O)NCC[C@@H]1NC(=O)[C@H](Cc2c[nH]c3ccccc23)NC(=O)C2(CCCC2)NC(=O)[C@H](Cc2c[nH]c3ccccc23)NC(=O)[C@@H]2C[C@@H]3CCCC[C@@H]3N2C(=O)[C@H]2CCCN2C1=O [Ex. 100] (cyclo([Ac5c]W[Dab](Ms)[dP][Oic]W))
Marked response: 0.2
